# Test system: 855422-203-R-J1-PDC complex spheroids, viability
# assay_details: Anticancer human tumor 855422-203-R-J1-PDC patient-derived bladder carcinoma cell line growth inhibition [CLK]
# applied_conditions: second compound 10 µM; first compound 0.316 µM; hits give low values
recorded_metric: viability, T/C (%)

* CC(CO)NC(=O)c1cc(-c2ccc(Cl)cc2)nn(-c2cnn(C)c2)c1=O (stereo not given) + CNC(=O)c1ccc(Nc2nc(OC3CCCC3)c3c(-c4ccc5nc(C)oc5c4)c[nH]c3n2)c(OC)c1 | 22.2
* CC(=O)O[C@H]1C(=O)[C@@]2(C)[C@H]([C@H](OC(=O)c3ccccc3)[C@]3(O)C[C@H](OC(=O)[C@H](O)[C@@H](NC(=O)c4ccccc4)c4ccccc4)C(C)=C1C3(C)C)[C@]1(OC(C)=O)CO[C@@H]1C[C@@H]2O + CNC(=O)c1ccc(Nc2nc(OC3CCCC3)c3c(-c4ccc5nc(C)oc5c4)c[nH]c3n2)c(OC)c1 | 25.5
* Nc1ccccc1NC(=O)c1ccc(CNC(=O)OCc2cccnc2)cc1 + CN1CCN(c2cc(C(=O)Nc3cc4cc(-c5cnn(C)c5)ccc4cn3)ccn2)CC1 | 0.42
* C=CC(=O)N1CCN(c2nc(=O)n(-c3c(C)ccnc3C(C)C)c3nc(-c4c(O)cccc4F)c(F)cc23)C(C)C1 (stereo not given) + CNC(=O)c1ccc(Nc2nc(OC3CCCC3)c3c(-c4ccc5nc(C)oc5c4)c[nH]c3n2)c(OC)c1 | 19.5
* CCc1c2c(nc3ccc(O)cc13)-c1cc3c(c(=O)n1C2)COC(=O)[C@]3(O)CC + CNC(=O)c1ccc(Nc2nc(OC3CCCC3)c3c(-c4ccc5nc(C)oc5c4)c[nH]c3n2)c(OC)c1 | 3.52

----------
# Test system: 855422-203-R-J1-PDC complex spheroids, viability
# assay_details: Anticancer human tumor 855422-203-R-J1-PDC cell line growth inhibition [CLK];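 further: spheroids exposed to drugs for seven days before readout; 100% = DMSO vehicle control wells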
# applied_conditions: second compound 10 µM; first compound 0.316 µM; hits give low values
recorded_metric: viability, T/C (%)

* CC(Nc1ccc2c(c1)OCCn1cc(N3C(=O)OCC3C(F)F)nc1-2)C(N)=O (stereo not given) + CNC(=O)c1ccc(Nc2nc(OC3CCCC3)c3c(-c4ccc5nc(C)oc5c4)c[nH]c3n2)c(OC)c1 | 10.3
* CCN1CCN(Cc2ccc(Nc3ncc(F)c(-c4cc(F)c5nc(C)n(C(C)C)c5c4)n3)nc2)CC1 + CNC(=O)c1ccc(Nc2nc(OC3CCCC3)c3c(-c4ccc5nc(C)oc5c4)c[nH]c3n2)c(OC)c1 | 18.5
* Nc1ccn(C2OC(CO)C(O)C2(F)F)c(=O)n1 (stereo not given) + CNC(=O)c1ccc(Nc2nc(OC3CCCC3)c3c(-c4ccc5nc(C)oc5c4)c[nH]c3n2)c(OC)c1 | 14.1
* COc1ccc([C@@H](O)c2cc(-c3ncnc4cc(N5CCOCC5)ccc34)c(F)cc2Cl)nn1 + CNC(=O)c1ccc(Nc2nc(OC3CCCC3)c3c(-c4ccc5nc(C)oc5c4)c[nH]c3n2)c(OC)c1 | 25.1
* Nc1ccccc1NC(=O)c1ccc(CNC(=O)OCc2cccnc2)cc1 + CNC(=O)c1ccc(Nc2nc(OC3CCCC3)c3c(-c4ccc5nc(C)oc5c4)c[nH]c3n2)c(OC)c1 | 16.6

----------
# System: 855422-203-R-J1-PDC complex spheroids, viability
# assay_details: Anticancer human tumor 855422-203-R-J1-PDC cell line growth inhibition [CLK]; active = viability on the fitted dose curve at most 10% of control; inactive = the rest;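 further: spheroids exposed to drugs for seven days before readout; 100% = DMSO vehicle control wells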
# applied_conditions: second compound 0.0316 µM; first compound 1 µM
Labels: active, inactive

- Nc1ccn(C2OC(CO)C(O)C2(F)F)c(=O)n1 (centres undefined) + CN1CCN(c2cc(C(=O)Nc3cc4cc(-c5cnn(C)c5)ccc4cn3)ccn2)CC1: inactive
- COc1c(OCCCN2CCOCC2)ccc2c3n(c(=NC(=O)c4cnc(N)nc4)nc12)CCN3 + CNC(=O)c1ccc(Nc2nc(OC3CCCC3)c3c(-c4ccc5nc(C)oc5c4)c[nH]c3n2)c(OC)c1: active
- C=C(F)C(=O)N1CCN(c2nc(OCC3CCCN3C)nc3c2CCN(c2cccc4cccc(Cl)c24)C3)CC1CC#N (centres undefined) + CNC(=O)c1ccc(Nc2nc(OC3CCCC3)c3c(-c4ccc5nc(C)oc5c4)c[nH]c3n2)c(OC)c1: inactive
- CCCS(=O)(=O)Nc1ccc(F)c(C(=O)c2c[nH]c3ncc(-c4ccc(Cl)cc4)cc23)c1F + CNC(=O)c1ccc(Nc2nc(OC3CCCC3)c3c(-c4ccc5nc(C)oc5c4)c[nH]c3n2)c(OC)c1: inactive

----------
# System: 855422-203-R-J1-PDC complex spheroids, viability
# assay_details: Anticancer human tumor 855422-203-R-J1-PDC cell line growth inhibition [CLK];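 further: spheroids exposed to drugs for seven days before readout; 100% = DMSO vehicle control wells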
# applied_conditions: second compound 0.0316 µM; first compound 1 µM; hits give low values
recorded_metric: viability, T/C (%)

* CC(=O)O[C@H]1C(=O)[C@@]2(C)[C@H]([C@H](OC(=O)c3ccccc3)[C@]3(O)C[C@H](OC(=O)[C@H](O)[C@@H](NC(=O)c4ccccc4)c4ccccc4)C(C)=C1C3(C)C)[C@]1(OC(C)=O)CO[C@@H]1C[C@@H]2O + CNC(=O)c1ccc(Nc2nc(OC3CCCC3)c3c(-c4ccc5nc(C)oc5c4)c[nH]c3n2)c(OC)c1 | 7.58
* Nc1ccn(C2OC(CO)C(O)C2(F)F)c(=O)n1 (centres undefined) + CNC(=O)c1ccc(Nc2nc(OC3CCCC3)c3c(-c4ccc5nc(C)oc5c4)c[nH]c3n2)c(OC)c1 | 8.48
* COC1C=CCC(C)C(C)S(=O)(=O)NC(=O)c2ccc3c(c2)N(CC2CCC21)CC1(CCCc2cc(Cl)ccc21)CO3 (centres undefined) + CN1CCN(c2cc(C(=O)Nc3cc4cc(-c5cnn(C)c5)ccc4cn3)ccn2)CC1 | 105
* O=C(c1cc(Cc2n[nH]c(=O)c3ccccc23)ccc1F)N1CCN(C(=O)C2CC2)CC1 + CNC(=O)c1ccc(Nc2nc(OC3CCCC3)c3c(-c4ccc5nc(C)oc5c4)c[nH]c3n2)c(OC)c1 | 98.1
* COc1ccc([C@@H](O)c2cc(-c3ncnc4cc(N5CCOCC5)ccc34)c(F)cc2Cl)nn1 + CN1CCN(c2cc(C(=O)Nc3cc4cc(-c5cnn(C)c5)ccc4cn3)ccn2)CC1 | 94
* CC(=O)O[C@H]1C(=O)[C@@]2(C)[C@H]([C@H](OC(=O)c3ccccc3)[C@]3(O)C[C@H](OC(=O)[C@H](O)[C@@H](NC(=O)c4ccccc4)c4ccccc4)C(C)=C1C3(C)C)[C@]1(OC(C)=O)CO[C@@H]1C[C@@H]2O + CN1CCN(c2cc(C(=O)Nc3cc4cc(-c5cnn(C)c5)ccc4cn3)ccn2)CC1 | 9.34
* CC1COCCN1c1cc(C2(S(C)(=N)=O)CC2)nc(-c2ccnc3[nH]ccc23)n1 (centres undefined) + CN1CCN(c2cc(C(=O)Nc3cc4cc(-c5cnn(C)c5)ccc4cn3)ccn2)CC1 | 93
* O=c1[nH]cc(F)c(=O)[nH]1 + CN1CCN(c2cc(C(=O)Nc3cc4cc(-c5cnn(C)c5)ccc4cn3)ccn2)CC1 | 64.4
* COc1ccc([C@@H](O)c2cc(-c3ncnc4cc(N5CCOCC5)ccc34)c(F)cc2Cl)nn1 + CNC(=O)c1ccc(Nc2nc(OC3CCCC3)c3c(-c4ccc5nc(C)oc5c4)c[nH]c3n2)c(OC)c1 | 82.7
* CC1(C)CCC(CN2CCN(c3ccc(C(=O)NS(=O)(=O)c4ccc(NCC5CCOCC5)c([N+](=O)[O-])c4)c(Oc4cnc5[nH]ccc5c4)c3)CC2)=C(c2ccc(Cl)cc2)C1 + CNC(=O)c1ccc(Nc2nc(OC3CCCC3)c3c(-c4ccc5nc(C)oc5c4)c[nH]c3n2)c(OC)c1 | 125
* O=c1[nH]cc(F)c(=O)[nH]1 + CNC(=O)c1ccc(Nc2nc(OC3CCCC3)c3c(-c4ccc5nc(C)oc5c4)c[nH]c3n2)c(OC)c1 | 72.3
* C=C(F)C(=O)N1CCN(c2nc(OCC3CCCN3C)nc3c2CCN(c2cccc4cccc(Cl)c24)C3)CC1CC#N (centres undefined) + CN1CCN(c2cc(C(=O)Nc3cc4cc(-c5cnn(C)c5)ccc4cn3)ccn2)CC1 | 115
* C=CC(=O)N1CCN(c2nc(=O)n(-c3c(C)ccnc3C(C)C)c3nc(-c4c(O)cccc4F)c(F)cc23)C(C)C1 (centres undefined) + CN1CCN(c2cc(C(=O)Nc3cc4cc(-c5cnn(C)c5)ccc4cn3)ccn2)CC1 | 138
* CCCS(=O)(=O)Nc1ccc(F)c(C(=O)c2c[nH]c3ncc(-c4ccc(Cl)cc4)cc23)c1F + CN1CCN(c2cc(C(=O)Nc3cc4cc(-c5cnn(C)c5)ccc4cn3)ccn2)CC1 | 106
* C#Cc1c(F)ccc2cc(O)cc(-c3ncc4c(N5CC6CCC(C5)N6)nc(OCC56CCCN5CC(F)C6)nc4c3F)c12 (centres undefined) + CN1CCN(c2cc(C(=O)Nc3cc4cc(-c5cnn(C)c5)ccc4cn3)ccn2)CC1 | 98.8
* COc1c(OCCCN2CCOCC2)ccc2c3n(c(=NC(=O)c4cnc(N)nc4)nc12)CCN3 + CN1CCN(c2cc(C(=O)Nc3cc4cc(-c5cnn(C)c5)ccc4cn3)ccn2)CC1 | 2.23
* CC(Nc1ccc2c(c1)OCCn1cc(N3C(=O)OCC3C(F)F)nc1-2)C(N)=O (centres undefined) + CNC(=O)c1ccc(Nc2nc(OC3CCCC3)c3c(-c4ccc5nc(C)oc5c4)c[nH]c3n2)c(OC)c1 | 26.3
* CCc1c2c(nc3ccc(O)cc13)-c1cc3c(c(=O)n1C2)COC(=O)[C@]3(O)CC + CNC(=O)c1ccc(Nc2nc(OC3CCCC3)c3c(-c4ccc5nc(C)oc5c4)c[nH]c3n2)c(OC)c1 | 2.42
* CC1COCCN1c1cc(C2(S(C)(=N)=O)CC2)nc(-c2ccnc3[nH]ccc23)n1 (centres undefined) + CNC(=O)c1ccc(Nc2nc(OC3CCCC3)c3c(-c4ccc5nc(C)oc5c4)c[nH]c3n2)c(OC)c1 | 111
